- targetOrSystem: CPS1 (Homo sapiens)
- Construct: The full length, human CPS1 gene was cloned into pFastBac HTA; His6 (from the pFastBac HTA vector); made in house; host or cells: SF21 insect cells (baculovirus, Bac-to-bac)
- Sequence (P31327 39-1500): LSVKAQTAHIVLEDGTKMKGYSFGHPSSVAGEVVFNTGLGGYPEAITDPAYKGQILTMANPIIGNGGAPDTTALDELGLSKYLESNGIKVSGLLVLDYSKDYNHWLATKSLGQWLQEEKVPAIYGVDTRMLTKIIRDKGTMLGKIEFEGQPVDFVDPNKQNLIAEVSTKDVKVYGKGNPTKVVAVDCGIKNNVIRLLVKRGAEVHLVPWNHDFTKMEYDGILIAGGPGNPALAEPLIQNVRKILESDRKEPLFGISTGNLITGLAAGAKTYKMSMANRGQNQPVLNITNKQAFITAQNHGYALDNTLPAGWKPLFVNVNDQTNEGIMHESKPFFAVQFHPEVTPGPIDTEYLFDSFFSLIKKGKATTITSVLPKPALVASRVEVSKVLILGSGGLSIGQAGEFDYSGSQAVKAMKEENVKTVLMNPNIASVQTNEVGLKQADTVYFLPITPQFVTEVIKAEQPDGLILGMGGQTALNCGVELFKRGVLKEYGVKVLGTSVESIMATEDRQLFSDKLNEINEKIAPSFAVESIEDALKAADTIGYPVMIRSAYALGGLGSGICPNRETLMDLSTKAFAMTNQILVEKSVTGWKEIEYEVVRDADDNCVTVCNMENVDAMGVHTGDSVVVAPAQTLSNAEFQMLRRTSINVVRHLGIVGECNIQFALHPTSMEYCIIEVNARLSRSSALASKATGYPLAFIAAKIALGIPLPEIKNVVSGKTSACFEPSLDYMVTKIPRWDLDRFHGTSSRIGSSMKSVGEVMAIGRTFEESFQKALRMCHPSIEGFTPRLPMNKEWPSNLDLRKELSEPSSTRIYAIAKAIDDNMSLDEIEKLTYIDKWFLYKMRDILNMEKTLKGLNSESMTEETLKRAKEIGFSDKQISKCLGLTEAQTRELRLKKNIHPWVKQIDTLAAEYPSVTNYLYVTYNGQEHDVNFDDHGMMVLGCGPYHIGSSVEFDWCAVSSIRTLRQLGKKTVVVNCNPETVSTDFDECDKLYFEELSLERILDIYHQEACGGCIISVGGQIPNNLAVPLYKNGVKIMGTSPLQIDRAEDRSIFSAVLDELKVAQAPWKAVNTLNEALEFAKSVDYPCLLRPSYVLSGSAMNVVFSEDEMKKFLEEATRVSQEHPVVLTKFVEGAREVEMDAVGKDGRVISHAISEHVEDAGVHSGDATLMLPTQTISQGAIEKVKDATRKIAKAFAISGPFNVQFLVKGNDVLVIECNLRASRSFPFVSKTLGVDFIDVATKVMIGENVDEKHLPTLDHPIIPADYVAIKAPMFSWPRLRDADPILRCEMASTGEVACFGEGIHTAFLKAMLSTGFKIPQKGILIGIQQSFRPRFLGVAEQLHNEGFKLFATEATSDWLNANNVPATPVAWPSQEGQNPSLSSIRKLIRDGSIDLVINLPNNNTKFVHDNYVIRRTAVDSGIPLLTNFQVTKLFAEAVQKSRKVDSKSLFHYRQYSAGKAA
- assayExplanation: ADP-Glo endpoint assay measuring the ATPase activity of CPS1
- Format: biochemical
- conditionsUsed: geometric mean of a minimum of two values; 50 nM CPS1, 10 μM ATP, 0.2 mM NAG, 60 min at room temperature; read-out: ADPGlo IC50
measurementLabel: IC50 (µM)

[1] COc1ccc(C(=O)N2[C@H](C)CN(C(=O)c3ccc(O)cc3F)C[C@H]2C)c(F)c1
[2] COc1ccc(C(=O)N2[C@H](C)CN(C(=O)c3ccc4c(c3)NCC4)C[C@H]2C)c(F)c1
Pick one: 1 or 2 . Which has the bigger IC50 number? Label of pick, please.
2

[1] COc1ccc(C(=O)N2[C@H](C)CN(C(=O)c3ccc(NC(C)=O)cc3F)C[C@H]2C)c(F)c1
[2] COc1ccc(C(=O)N2C[C@@H](C)N(C(=O)c3ccc(-c4ncc[nH]4)cc3)[C@H](C)C2)c(F)c1
Just tell me: smaller IC50 value, 1 or 2 ? Mark your answer with the label of the selected entry.
1
